The compounds listed here are annotated with their selective drug sensitivity score.
- Tested on: JURKAT;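 further: ALL cell lines in 384-well plates, five doses spanning 10,000-fold, each plate scaled between vehicle and 100 µmol/L benzalkonium chloride controls, sDSS an adapted area-under-curve metric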
- testSummary: selective drug sensitivity score (sDSS, relative to normal bone marrow) (sDSS (score)); higher = more potent and effective on the cell line relative to normal bone marrow cells
- experimentalSetup: 72 h
Lab note: jot the number down without any unit.

Solved cases (5 shown):
{"columns": ["compound", "selective drug sensitivity score"],
 "data": [
  ["CNC(=O)c1cc(Oc2ccc(NC(=O)Nc3ccc(Cl)c(C(F)(F)F)c3)cc2)ccn1 [Sorafenib] (top concentration 1000 nM)", 0.4],
  ["Nc1nc(F)nc2c1ncn2[C@@H]1O[C@H](CO)[C@@H](O)[C@@H]1O [Fludarabine] (top concentration 10000 nM)", -5.5],
  ["CC(C)n1cnc2c(NCCc3ccc(O)cc3)nc(-c3csc4ccccc34)nc21 [StemRegenin_1] (top concentration 10000 nM)", 1],
  ["Cc1cn(-c2cc(NC(=O)c3ccc(C)c(Nc4nccc(-c5cnccn5)n4)c3)cc(C(F)(F)F)c2)cn1 [Radotinib] (top concentration 10000 nM)", 0],
  ["Cc1ccc(C(=O)Nc2ccc(Oc3cc4cnn(C)c4cc3-c3cn[nH]c3)c(F)c2)c(=O)n1-c1ccc(F)cc1 [Merestinib] (top concentration 1000 nM)", -0.62]
]}

Please examine the following record next.
Q. Write down measured selective drug sensitivity score (JURKAT) for this compound. O=C(c1cc(Cc2n[nH]c(=O)c3ccccc23)ccc1F)N1CCN(C(=O)C2CC2)CC1 [Olaparib] (top concentration 10000 nM)
A. 1.58
